Biological target: human EHMT2 913-1193 (Homo sapiens, UniProt Q96KQ7)
Construct: recombinant purified human EHMT2 913-1193, Viva; purchased Viva
Sequence (Q96KQ7 913-1193): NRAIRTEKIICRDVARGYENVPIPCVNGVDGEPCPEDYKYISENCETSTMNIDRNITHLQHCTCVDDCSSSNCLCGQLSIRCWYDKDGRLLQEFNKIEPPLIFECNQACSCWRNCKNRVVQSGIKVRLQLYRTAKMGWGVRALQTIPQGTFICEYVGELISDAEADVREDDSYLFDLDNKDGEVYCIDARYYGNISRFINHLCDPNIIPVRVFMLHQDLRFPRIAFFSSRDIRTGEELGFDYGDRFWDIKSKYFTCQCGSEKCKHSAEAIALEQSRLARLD
Experiment: EHMT2 enzyme assay on histone peptide substrate (EHMT2 PEP)
Type: biochemical
Conditions: Table III; read-out: EHMT2 PEP (IC50 μM)
experimental.readout: IC50

In the examples that follow, each entry is paired with its recorded IC50.
compound	IC50
CCc1nc(Nc2ccc(OC)c(OCCCN3CCCC3)c2)nc(NC)c1F [Compound 319]	0.1 to 1 µM
CNc1cc(C)nc(Nc2ccc(OC)c(OCC3CCCN(C)C3)c2)n1 (centres unmarked) [Compound 413]	0.1 to 1 µM
CNc1ccnc(Nc2ccc(OC)c(COC3CCN(C)C3)c2)n1 (centres unmarked) [Compound 407]	0.1 to 1 µM
CNc1ccnc(Nc2ccc(OC)c(OC[C@@H]3CN(C)C[C@H]3C)c2)n1 (single isomer, unassigned) [Compound 438]	> 10 µM

Now examine the next entry.
get_value(item= CNc1cc(C(F)(F)F)nc(Nc2ccc(OC)c(OCCCN3CCCC3)c2)n1 [Compound 362] , readout=IC50) returns > 10 µM

----------
# Lookup of reported IC50 keyed by entry
Target: EHMT1 (Homo sapiens)
Assay: EHMT1 enzyme assay on peptide substrate (EHMT1 PEP)
Format: biochemical
Settings: Table VI; read-out: EHMT1 PEP IC50

get_value(item= CNc1ccnc(Nc2cnc(OC)c(OC[C@@H]3CCN(C)C3)c2)n1 , readout=IC50) returns < 100 nM

----------
Molecular target: EHMT1 (Homo sapiens)
Sequence (Q9H9B1 1-1298): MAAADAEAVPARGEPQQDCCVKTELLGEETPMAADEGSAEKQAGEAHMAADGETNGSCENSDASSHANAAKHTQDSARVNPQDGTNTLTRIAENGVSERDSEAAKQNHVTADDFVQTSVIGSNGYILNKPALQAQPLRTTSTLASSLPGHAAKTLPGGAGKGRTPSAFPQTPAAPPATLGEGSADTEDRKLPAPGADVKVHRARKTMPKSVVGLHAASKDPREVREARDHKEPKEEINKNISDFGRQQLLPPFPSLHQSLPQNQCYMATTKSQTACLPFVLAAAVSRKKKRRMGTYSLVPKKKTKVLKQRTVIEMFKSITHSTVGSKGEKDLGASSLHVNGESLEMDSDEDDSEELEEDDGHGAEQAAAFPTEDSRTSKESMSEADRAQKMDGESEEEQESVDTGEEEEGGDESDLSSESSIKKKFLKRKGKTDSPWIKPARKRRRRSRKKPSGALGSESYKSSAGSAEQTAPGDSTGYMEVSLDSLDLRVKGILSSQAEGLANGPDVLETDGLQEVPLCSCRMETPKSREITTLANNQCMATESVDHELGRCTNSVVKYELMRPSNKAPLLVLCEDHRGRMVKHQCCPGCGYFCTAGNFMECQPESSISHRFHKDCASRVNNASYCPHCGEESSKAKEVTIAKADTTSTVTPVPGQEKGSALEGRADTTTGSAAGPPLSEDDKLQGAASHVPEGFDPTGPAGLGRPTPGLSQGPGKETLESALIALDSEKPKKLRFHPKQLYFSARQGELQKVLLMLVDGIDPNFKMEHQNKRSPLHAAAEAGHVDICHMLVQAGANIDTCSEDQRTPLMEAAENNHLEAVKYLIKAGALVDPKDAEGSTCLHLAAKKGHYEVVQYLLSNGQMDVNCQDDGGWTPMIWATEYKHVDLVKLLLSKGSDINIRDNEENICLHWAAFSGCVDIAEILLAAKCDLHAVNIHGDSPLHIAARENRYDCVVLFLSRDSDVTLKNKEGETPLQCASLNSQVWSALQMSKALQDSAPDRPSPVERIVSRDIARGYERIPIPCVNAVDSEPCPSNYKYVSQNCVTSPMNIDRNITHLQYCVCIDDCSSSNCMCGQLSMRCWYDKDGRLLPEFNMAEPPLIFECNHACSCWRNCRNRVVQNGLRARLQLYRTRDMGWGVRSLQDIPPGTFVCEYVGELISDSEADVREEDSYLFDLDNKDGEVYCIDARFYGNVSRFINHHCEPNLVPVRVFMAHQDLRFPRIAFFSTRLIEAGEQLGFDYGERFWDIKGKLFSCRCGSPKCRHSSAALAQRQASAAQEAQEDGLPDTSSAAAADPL
Test: EHMT1 enzyme assay on peptide substrate (EHMT1 PEP)
Format: biochemical
Conditions: Table III; read-out: EHMT1 PEP (IC50 μM)
# Lookup of reported IC50 keyed by entry

In the examples that follow, each entry is paired with its recorded IC50.
compound	IC50
COc1ccc(Nc2ncc3ncn(C)c3n2)cc1OCCCN1CCCC1 [Compound 343]	> 10 µM
CNc1ccnc(Nc2ccc(OC)c(OCCCN3CC(F)C3)c2)n1 [Compound 354]	0.1 to 1 µM
CNc1ccnc(Nc2cccc(OCC(F)CN3CCCC3)c2)n1 (stereo not drawn) [Compound 276]	1 to 10 µM
CNc1ccnc(Nc2ccc(OC)c(OCCCN3CCC(C)C3)c2)n1 (stereo not drawn) [Compound 293]	0.1 to 1 µM

get_value(item= CNc1cncc(Nc2ccc(OC)c(OCCCN3CCCC3)c2)n1 [Compound 371] , readout=IC50) returns 1 to 10 µM

get_value(item= COc1ccc(Nc2cccc3[nH]ccc23)cc1OCCCN1CCCC1 [Compound 265] , readout=IC50) returns > 10 µM

get_value(item= CNc1cc(Nc2ccc(OC)c(OCCCN3CCCC3)c2)cc(C(F)(F)F)n1 [Compound 273] , readout=IC50) returns > 10 µM

get_value(item= CNc1cc(C)nc(Nc2ccc(OC)c(OCC3CN(C)C3)c2)n1 [Compound 442] , readout=IC50) returns < 0.1 µM

get_value(item= CCc1cc(NC)nc(Nc2ccc(OC)c(OCCCN3CC[C@@H](F)C3)c2)n1 [Compound 385] , readout=IC50) returns 0.1 to 1 µM

get_value(item= CNc1cc(Nc2cccc(COCCN3CCCC3)n2)ccn1 [Compound 268] , readout=IC50) returns > 10 µM

get_value(item= CNc1ccnc(Nc2ccc(OC)c(OCCCN3CC[C@@H](F)C3)c2)n1 [Compound 353] , readout=IC50) returns 0.1 to 1 µM

get_value(item= CNc1ccnc(Nc2ccc(OC)c(OCC3CCCN3C)c2)n1 (stereo not drawn) [Compound 289] , readout=IC50) returns < 0.1 µM

get_value(item= CNc1cc(C)nc(Nc2ccc(OC)c(OCC3CCN(CC4CC4)CC3)c2)n1 [Compound 436] , readout=IC50) returns > 10 µM

get_value(item= CNc1ccnc(Nc2ccc(OC)c(OCCOC3CCCC3)c2)n1 [Compound 440] , readout=IC50) returns > 10 µM

get_value(item= CNc1cc(C)nc(Nc2cccc(OCCCN3CCCC3)c2)n1 [Compound 391] , readout=IC50) returns 0.1 to 1 µM

get_value(item= CNc1cc(C2CC2)nc(Nc2ccc(OC)c(OCCCN3CCCC3)c2)n1 [Compound 320] , readout=IC50) returns < 0.1 µM

get_value(item= CNc1cc(C(F)(F)F)nc(Nc2ccc(OC)c(OCCCN3CCCC3)c2)n1 [Compound 362] , readout=IC50) returns > 10 µM

get_value(item= COc1ccc(Nc2ccc3cnn(C)c3n2)cc1OCCCN1CCCC1 [Compound 257] , readout=IC50) returns > 10 µM

get_value(item= CNc1cc(Nc2ccc(OC)c(OCCCN3CCCC3)c2)ncc1F [Compound 272] , readout=IC50) returns 1 to 10 µM

get_value(item= CNc1ccnc(Nc2ccc(OC)c(OCC3CCN(C)C3)c2)n1 (single isomer, unassigned) [Compound 415] , readout=IC50) returns 0.1 to 1 µM

get_value(item= CNc1cc(Nc2cc(OCCCN3CCCC3)c(OC)cn2)cnn1 [Compound 323] , readout=IC50) returns > 10 µM

get_value(item= CNc1ccnc(Nc2ccc(OC)c(OC[C@H]3CN(C)C[C@@H]3C)c2)n1 (single isomer, unassigned) [Compound 439] , readout=IC50) returns 0.1 to 1 µM

get_value(item= COc1ccc(Nc2nccc(Nc3cccc(F)c3)n2)cc1OCCCN1CCCC1 [Compound 349] , readout=IC50) returns 1 to 10 µM

get_value(item= CNc1cc(OC)nc(Nc2ccc(OC)c(OCCCN3CCCC3)c2)n1 [Compound 261] , readout=IC50) returns > 10 µM

get_value(item= CNc1cc(C)nc(Nc2cc(OCCCN3CCCC3)c(OC)cn2)n1 [Compound 303] , readout=IC50) returns 0.1 to 1 µM

get_value(item= CNc1ccnc(Nc2ccc(OC)c(OCCCN3CC(OC)C3)c2)n1 [Compound 425] , readout=IC50) returns 0.1 to 1 µM

get_value(item= CNc1cc(C)nc(Nc2ccc(OC)c(O[C@H]3C[C@@H](N(C)C)C3)c2)n1 (single isomer, unassigned) [Compound 317] , readout=IC50) returns > 10 µM

get_value(item= CNc1ccnc(Nc2cccc(N3CCC(N)C3=O)c2)n1 (stereo not drawn) [Compound 274] , readout=IC50) returns 1 to 10 µM

get_value(item= CNc1ccnc(Nc2ccc(OC)c(OC[C@H](O)CN3CCCC3)c2)n1 (single isomer, unassigned) [Compound 376] , readout=IC50) returns 1 to 10 µM

get_value(item= CNc1cc(C)nc(Nc2cc(OCCCN3CCCC3)c(OC)cn2)c1 [Compound 307] , readout=IC50) returns < 0.1 µM

get_value(item= CNc1ccnc(Nc2ccc(OC)c(OCC3CCCN(C)C3)c2)n1 (stereo not drawn) [Compound 412] , readout=IC50) returns 0.1 to 1 µM
